Reported HT1A, percent of control-specific binding values for the following compounds.
Study Target: 5-HT1A receptor (Homo sapiens, UniProt P08908)
Construct: purchased Perkin Elmer 6110501400UA
Sequence (P08908 whole entry): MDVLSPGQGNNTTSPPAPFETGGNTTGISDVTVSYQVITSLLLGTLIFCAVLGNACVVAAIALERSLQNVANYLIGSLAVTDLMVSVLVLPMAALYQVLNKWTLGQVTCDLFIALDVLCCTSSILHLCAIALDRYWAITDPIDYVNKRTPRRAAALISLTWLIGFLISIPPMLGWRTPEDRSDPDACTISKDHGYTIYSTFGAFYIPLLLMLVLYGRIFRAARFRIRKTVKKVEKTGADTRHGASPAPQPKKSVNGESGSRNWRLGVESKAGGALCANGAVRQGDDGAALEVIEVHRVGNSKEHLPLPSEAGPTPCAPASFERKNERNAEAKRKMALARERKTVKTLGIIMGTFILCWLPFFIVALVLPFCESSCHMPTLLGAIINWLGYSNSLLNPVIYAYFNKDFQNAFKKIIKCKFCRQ
Method Notes: Eurofins Cerep competition binding assay at 5-HT1A receptor
Test Context: 10 μM test ligand, [3H]8-OH-DPAT, recombinant receptor from HEK-293 cells
Property: HT1A, percent of control-specific binding (%)

Compound: COc1cc(CC(C)N)c(OC)cc1Br (stereo not shown) [DOB]
Readout Unit: %
Readout Number: 75
//
Compound: CCOc1c(OC)cc(CCN)cc1OC [escaline]
Readout Unit: %
Readout Number: 44
//
Compound: CNC(C)Cc1ccc2c(c1)OCO2 (stereo not shown) [MDMA]
Readout Unit: %
Readout Number: 68
//
Compound: COc1cc(CCN)c(OC)cc1Br [2C-B]
Readout Unit: %
Readout Number: 96

###

Study Target: norepinephrine transporter (NET) (Homo sapiens, UniProt P23975)
Construct: host or cells: CHO cells (membrane preparation)
Sequence (P23975 whole entry): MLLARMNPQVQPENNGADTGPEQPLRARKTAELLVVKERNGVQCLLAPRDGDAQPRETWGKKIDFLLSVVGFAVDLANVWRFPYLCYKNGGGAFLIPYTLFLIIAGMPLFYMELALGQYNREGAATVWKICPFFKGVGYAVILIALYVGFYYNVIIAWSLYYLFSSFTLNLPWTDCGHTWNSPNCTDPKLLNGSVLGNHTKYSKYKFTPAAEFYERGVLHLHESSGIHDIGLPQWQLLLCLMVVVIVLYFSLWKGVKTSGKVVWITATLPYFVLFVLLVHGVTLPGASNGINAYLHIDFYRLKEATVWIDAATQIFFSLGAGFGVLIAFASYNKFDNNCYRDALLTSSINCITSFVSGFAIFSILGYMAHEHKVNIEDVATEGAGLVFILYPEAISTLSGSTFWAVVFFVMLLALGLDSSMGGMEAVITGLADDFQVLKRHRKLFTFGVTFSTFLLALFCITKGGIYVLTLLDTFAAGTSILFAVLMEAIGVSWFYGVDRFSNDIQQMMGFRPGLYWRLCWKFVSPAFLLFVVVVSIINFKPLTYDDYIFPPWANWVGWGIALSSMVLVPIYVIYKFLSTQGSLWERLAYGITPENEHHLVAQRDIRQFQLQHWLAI
Method Notes: Eurofins Cerep competition binding assay at norepinephrine transporter
Test Context: 10 μM test ligand, [3H]nisoxetine, recombinant transporter from CHO cells

Molecule: COc1cc(CC(C)N)c(OC)cc1Br (stereo not shown) [DOB]
NET, percent of control-specific binding: 6%
//
Molecule: CCOc1c(OC)cc(CCN)cc1OC [escaline]
NET, percent of control-specific binding: 6%
//
Molecule: CNC(C)Cc1ccc2c(c1)OCO2 (stereo not shown) [MDMA]
NET, percent of control-specific binding: 3%
//
Molecule: COc1cc(CCN)c(OC)cc1Br [2C-B]
NET, percent of control-specific binding: 13%

###

Study Target: 5-HT1A receptor (Homo sapiens)
Construct: purchased Perkin Elmer 6110501400UA
Method Notes: 5-HT1A receptor functional cellular response (cAMP) assay
Type: cell-based

Molecule: CC(C(=O)c1ccc2c(c1)OCO2)N(C)Cc1ccccc1 (racemic)
EC50: > 1000 µM

Molecule: CN(C)CCc1c[nH]c2cccc(O)c12
EC50: 0.957 µM

Molecule: CC(C(F)c1ccc2c(c1)OCO2)N1CCCC1 (stereo not shown) [D(I) as diast. (v)]
EC50: > 1000 µM

Molecule: CC(C(F)c1ccc2c(c1)OCO2)N(C)Cc1ccccc1 (single isomer, unassigned) [D(III) as diast. (vii)]
EC50: 156 µM

Molecule: COc1cc(CCN)cc(OC)c1OC
EC50: > 1000 µM

Molecule: CNC(C)C(F)c1ccc2c(c1)OCO2 (single isomer, unassigned) [D(II) as diast. (vi)]
EC50: > 1000 µM

Molecule: C[C@@H]([C@H](F)c1ccc2c(c1)OCO2)N(C)Cc1ccccc1 [D(III) as diast. (vii)]
EC50: 156 µM

###

Study Target: 5-HT7 receptor (Homo sapiens, UniProt P34969)
Construct: host or cells: HEK-293 cells (membrane preparation)
Sequence (P34969 whole entry): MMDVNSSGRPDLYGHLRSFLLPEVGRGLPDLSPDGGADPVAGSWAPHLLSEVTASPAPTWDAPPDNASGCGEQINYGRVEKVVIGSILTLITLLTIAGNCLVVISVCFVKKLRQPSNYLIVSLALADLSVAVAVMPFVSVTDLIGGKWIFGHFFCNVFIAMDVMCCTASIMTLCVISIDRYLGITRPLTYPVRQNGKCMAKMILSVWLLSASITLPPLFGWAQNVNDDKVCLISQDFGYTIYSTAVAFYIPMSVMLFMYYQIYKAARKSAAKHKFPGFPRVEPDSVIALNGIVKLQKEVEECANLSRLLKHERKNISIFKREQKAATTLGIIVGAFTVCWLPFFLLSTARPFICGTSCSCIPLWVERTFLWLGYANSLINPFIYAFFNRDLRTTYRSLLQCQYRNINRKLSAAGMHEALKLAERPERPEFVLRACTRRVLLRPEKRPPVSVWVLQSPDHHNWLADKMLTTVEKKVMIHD
Method Notes: Eurofins Cerep competition binding assay at 5-HT7 receptor
Test Context: 10 μM test ligand, [3H]LSD, recombinant receptor from HEK-293 cells; read-out: HT7, percent of control-specific binding
Known inhibition at 10 µM of a selection of molecules

Molecule: CC(C(=O)c1ccc2c(c1)OCO2)N(C)Cc1ccccc1 (racemic) [A(III)]
inhibition at 10 µM: 0%
--
Molecule: O=c1n(CCCN2CCN(c3cccc(Cl)c3)CC2)nc2ccccn12 [Trazodone, trazodone]
inhibition at 10 µM: 99%
--
Molecule: Cc1ccc(Sc2ccccc2N2CCNCC2)c(C)c1 [vortioxetine]
inhibition at 10 µM: 100%
